biological target: UniProt:O95136; assay: Activity at human S1P2 receptor expressed in HEK293T cells by [35S]GTP-gamma-S binding assay; type: functional, cell-based; details: HEK-293T
Sequence (O95136 whole entry): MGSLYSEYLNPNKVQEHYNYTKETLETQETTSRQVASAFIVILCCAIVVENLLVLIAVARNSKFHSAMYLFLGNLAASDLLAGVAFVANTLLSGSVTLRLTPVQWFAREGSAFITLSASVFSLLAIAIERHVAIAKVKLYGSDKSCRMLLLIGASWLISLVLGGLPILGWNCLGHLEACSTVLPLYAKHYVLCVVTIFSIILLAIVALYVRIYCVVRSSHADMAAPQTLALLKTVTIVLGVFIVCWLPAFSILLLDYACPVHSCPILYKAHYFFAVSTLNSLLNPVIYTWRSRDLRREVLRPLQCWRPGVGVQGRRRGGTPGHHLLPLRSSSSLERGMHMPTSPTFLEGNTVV
Calls of active or inactive are those of the source. The rule behind the calls is not given here.
experimentalReadout: Activity

These solved cases illustrate the format of a correct answer.
>  <compound>
CCCCCCCCc1ccc(NC(=O)[C@H](N)CCP(=O)(O)O)cc1

>  <Activity>
inactive

$$$$
>  <compound>
CCCCCCCCc1cccc(NC(=O)[C@H](N)CCP(=O)(O)O)c1

>  <Activity>
inactive

$$$$
>  <compound>
CCCCCCCCc1cccc(NC[C@H](N)CCP(=O)(O)O)c1

>  <Activity>
inactive

$$$$
>  <compound>
CCCCCCCCc1cccc(NC(=O)[C@@H](N)CCP(=O)(O)O)c1

>  <Activity>
inactive

$$$$
>  <compound>
CCCCCCCCc1ccc(CCC(N)(CO)COP(=O)(O)O)cc1 (stereo not drawn)

>  <Activity>
inactive

$$$$

Query: Activity; subject: CCCCCCCCc1ccc(OC[C@@H](N)CCP(=O)(O)O)cc1
inactive

Same lookup for CCCCCCCCc1ccc(OC[C@@H](O)CCP(=O)(O)O)cc1 , please.
inactive

Next entry: CCCCCCCCc1ccc(NC(=O)[C@@H](N)CCP(=O)(O)O)cc1
inactive
